// data source = the supplement of paper PMC9233669

# Test system: biotinyl-Trp-oxazolone
# assay procedure: self-aminoacylation, catalytic enhancement (BWO) (fold over background); higher = more active; k-Seq, kA / k0A0; sequences stand for … in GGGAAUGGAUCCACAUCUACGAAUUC…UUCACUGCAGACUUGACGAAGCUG
Variants at the floor of the assay were thinned out.
Reported values of self-aminoacylation for individual entries
The answer should be written as a number, with no unit following it.

These recorded examples may help you get a feel for the data.
[[record]]
sequence = "AAGUUUGCUCAUAGUGGCAAG [Fam3.1 aminoacylation ribozyme variant]"
endpoint_name = "self-aminoacylation"
numeric_value = 0.785

[[record]]
sequence = "AUUCACCUGGGUCGUCGGGUG [Fam2.2 aminoacylation ribozyme variant]"
endpoint_name = "self-aminoacylation"
numeric_value = 2.11

[[record]]
sequence = "AUCCACCUAGGUCAUGGGGUG [Fam2.2 aminoacylation ribozyme variant]"
endpoint_name = "self-aminoacylation"
numeric_value = 5.9


Q: // lookup self-aminoacylation for AAUCCCCUAGGUCAUCGGGUG [Fam2.2 aminoacylation ribozyme variant]
Result: 11.8

Q: // lookup self-aminoacylation for AUUACAUUGGUCAUCGAGUGA [Fam2.1 aminoacylation ribozyme variant]
Result: 6.85

Q: // lookup self-aminoacylation for CAACUUCGAACAAUCGGUCUG [Fam1A.1 aminoacylation ribozyme variant]
Result: 2.15

Q: // lookup self-aminoacylation for CUACUUCGACCAAUCGGUCUG [Fam1A.1 aminoacylation ribozyme variant]
Result: 0.379

Q: // lookup self-aminoacylation for AUUCACGUAGGUCUUCGGGUG [Fam2.2 aminoacylation ribozyme variant]
Result: 4.88
